Catalogue of concentration at 0.25 h readings, one per entry.
- Assay Notes: Intracolonic dosing with and without β-glucuronidase, catheterized rat
- Format: in vivo
- Recorded Conditions: male, Sprague Dawley, rat, plasma, other: intracolonic, 10 mg/kg, rats N=6; Compound 1 10 mg/kg intracolonic with β-glucuronidase; 0.25 hrs
Readout Label: concentration at 0.25 h (ng/mL)

[[record]]
molecule = "COc1cc2c(cc1OC)-c1n[nH]c(Nc3cccc(F)c3)c1C2"
reported = 129

[[record]]
molecule = "COc1cc2c(cc1OC)-c1nn(C3OC(C(=O)O)C(O)C(O)C3O)c(Nc3cccc(F)c3)c1C2 (stereo in doubt)"
reported = 508

[[record]]
molecule = "COc1cc2c(cc1OC)-c1n[nH]c(N(c3cccc(F)c3)[C@H]3O[C@@H](C(=O)O)[C@H](O)[C@@H](O)[C@@H]3O)c1C2"
reported = 6450


###

- Assay Notes: Oral gavage pharmacokinetics, jugular and portal vein sampling, first pass metabolism
- Type: in vivo, rat
- Recorded Conditions: male, Sprague Dawley, rat, plasma (jugular vein sample); rats N=4; Compound 1 75 mg/kg oral gavage; jugular sample; 1.5 hrs
The following compounds are shown together with reported concentration at 1.5 h values.
Readout Label: concentration at 1.5 h (ng/mL)

[[record]]
compound = "COc1cc2c(cc1OC)-c1n[nH]c(N(c3cccc(F)c3)[C@H]3O[C@@H](C(=O)O)[C@H](O)[C@@H](O)[C@@H]3O)c1C2"
reported = 11700

[[record]]
compound = "COc1cc2c(cc1OC)-c1n[nH]c(Nc3cccc(F)c3)c1C2"
reported = 409

[[record]]
compound = "COc1cc2c(cc1OC)-c1nn(C3OC(C(=O)O)C(O)C(O)C3O)c(Nc3cccc(F)c3)c1C2 (stereo in doubt)"
reported = 169


###

- Assay Notes: Oral gavage pharmacokinetics, jugular and portal vein sampling, first pass metabolism
- Assay type: in vivo, rat
- Recorded Conditions: male, Sprague Dawley, rat, portal vein plasma; rats N=4; Compound 1 75 mg/kg oral gavage; portal sample; 0 hrs
Readout Label: concentration at 0 h

[[record]]
compound = "COc1cc2c(cc1OC)-c1nn(C3OC(C(=O)O)C(O)C(O)C3O)c(Nc3cccc(F)c3)c1C2 (stereo in doubt)"
reported = "0 ng/mL"

[[record]]
compound = "COc1cc2c(cc1OC)-c1n[nH]c(Nc3cccc(F)c3)c1C2"
reported = "2.4 ng/mL"

[[record]]
compound = "COc1cc2c(cc1OC)-c1n[nH]c(N(c3cccc(F)c3)[C@H]3O[C@@H](C(=O)O)[C@H](O)[C@@H](O)[C@@H]3O)c1C2"
reported = "1.3 ng/mL"


###

- Assay Notes: Intracolonic dosing with and without β-glucuronidase, catheterized rat
- Assay type: in vivo
- Recorded Conditions: male, Sprague Dawley, rat, plasma, other: intracolonic, 10 mg/kg, rats N=6; Compound 1 10 mg/kg intracolonic with β-glucuronidase; 3 hrs
Readout Label: concentration at 3 h

[[record]]
molecule = "COc1cc2c(cc1OC)-c1n[nH]c(Nc3cccc(F)c3)c1C2"
reported = "12.9 ng/mL"

[[record]]
molecule = "COc1cc2c(cc1OC)-c1n[nH]c(N(c3cccc(F)c3)[C@H]3O[C@@H](C(=O)O)[C@H](O)[C@@H](O)[C@@H]3O)c1C2"
reported = "462 ng/mL"

[[record]]
molecule = "COc1cc2c(cc1OC)-c1nn(C3OC(C(=O)O)C(O)C(O)C3O)c(Nc3cccc(F)c3)c1C2 (stereo in doubt)"
reported = "271 ng/mL"

